Just for reference, ChEMBL document CHEMBL3414565 is where these values come from.

Catalogue of compounds with associated pIC50
Assay: Cytotoxicity against human EC9706 cells after 72 hrs by MTT assay
Format: functional, cell-based
Settings: EC9706, 72 h
Recall that pIC50 is obtained by taking minus log10 of the concentration measured in molar.

smilesData | valueKind | val
CCCCCCCCCCCCCCSC(=S)N[C@H]1CCOC1=O | pIC50 | 4.18
CCOC(=O)c1ccc(NC(=O)CSC(=S)N[C@H]2CCOC2=O)cc1 | pIC50 | 3.95

Task: pIC50 for "O=C(CSC(=S)N[C@H]1CCOC1=O)Nc1ccc(C(=O)/C=C/c2ccc(Br)cc2)cc1" ?
Result: 4.04

Task: Then what about the compound "O=C(CSC(=S)N[C@H]1CCOC1=O)Nc1ccc(C(=O)/C=C/c2ccc(F)cc2)cc1" ?
Result: 4.34

Task: Also "Cc1ccc(/C=C/C(=O)c2ccc(NC(=O)CCl)cc2)cc1" ?
Result: 5.15

Task: Next up: "O=C(CCl)Nc1ccc(C(=O)/C=C/C=C/c2ccccc2)cc1"
Result: 4.97

Task: For "O=C(CSC(=S)N[C@H]1CCOC1=O)Nc1ccc(Br)cc1" then?
Result: 4.17
